Reported inhibition at 0.5 µM values for the following compounds.
Molecular target: carboxypeptidase B (Homo sapiens)
Construct: from tissue; host or cells: human plasma (citrated)
Experiment: Inhibitory activity against carboxypeptidase B (activated pro-CPB partially purified from human plasma, Hip-Arg substrate)
Assay type: biochemical
Settings: tested substance 500 nM, 25° C. for 60 minutes, absorbance at 405 nm, read-out: Carboxypeptidase B inhibitory rates by tested substance at 500 nM

Would you please look over these solved cases?
| compound | inhibition at 0.5 µM |
| --- | --- |
| CC(C)(C)CC(NC(=O)CCc1ccccc1)P(=O)(O)OC(CCCCN)C(=O)O (stereo not drawn) [Example 23] | 50% |
| CCC(CC)C(NC(=O)CCc1ccccc1)P(=O)(O)OC(CCCCN)C(=O)O (stereo not drawn) [Example 3] | > 90% |
| C[C@H](NC(=O)OCc1ccccc1)P(=O)(O)O[C@@H](CCCCN)C(=O)O [Example 1] | 30% |
| NCCCCC(OP(=O)(O)C(NC(=O)CCc1ccccc1)c1ccccc1)C(=O)O (stereo not drawn) [Example 34] | 40% |
| CCC(NC(=O)CCc1ccccc1)P(=O)(O)OC(CCCCN)C(=O)O (stereo not drawn) [Example 16] | > 90% |

What inhibition at 0.5 µM value was documented for this compound, NCCCC[C@H](OP(=O)(O)C1(NC(=O)CCc2ccccc2)CCCCC1)C(=O)O [Example 14] ?
> 90%

Tell me the measured inhibition at 0.5 µM of NCCCCC(OP(=O)(O)C(CO)NC(=O)CCc1ccccc1)C(=O)O (stereo not drawn) [Example 37] , please.
70%

Please give the measured inhibition at 0.5 µM for this compound: NCCCC[C@H](OP(=O)(O)CNC(=O)CCc1ccccc1)C(=O)O [Example 5]
30%

----------
inhibition at 0.5 µM overview
Molecular target: carboxypeptidase B (Homo sapiens, UniProt Q96IY4)
Construct: from tissue; host or cells: human plasma (citrated)
Sequence (Q96IY4 115-423): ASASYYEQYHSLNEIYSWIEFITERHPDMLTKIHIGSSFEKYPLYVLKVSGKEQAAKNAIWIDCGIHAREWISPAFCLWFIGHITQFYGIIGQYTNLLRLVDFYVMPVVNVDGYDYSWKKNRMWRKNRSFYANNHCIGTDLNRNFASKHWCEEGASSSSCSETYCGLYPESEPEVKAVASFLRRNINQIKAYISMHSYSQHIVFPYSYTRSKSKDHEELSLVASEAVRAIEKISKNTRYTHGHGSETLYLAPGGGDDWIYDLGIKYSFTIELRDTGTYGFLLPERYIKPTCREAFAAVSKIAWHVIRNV
Test: Inhibitory activity against carboxypeptidase B (activated pro-CPB partially purified from human plasma, Hip-Arg substrate)
Format: biochemical
Conditions: tested substance 500 nM, 25° C. for 60 minutes, absorbance at 405 nm, read-out: Carboxypeptidase B inhibitory rates by tested substance at 500 nM

# example entries with known answers
| molecule | inhibition at 0.5 µM |
| --- | --- |
| NCCCC[C@H](OP(=O)(O)C1(NC(=O)CCc2ccccc2)CCCC1)C(=O)O [Example 20] | > 90% |
| CC1CCC(C(NC(=O)CCc2ccccc2)P(=O)(O)OC(CCCCN)C(=O)O)CC1 (stereo not shown) [Example 41] | > 90% |
| CC(C)C(NC(=O)CCCc1ccccc1)P(=O)(O)OC(CCCCN)C(=O)O (stereo not shown) [Example 24] | > 90% |

Now, please, on to the next molecule.
Fill in: inhibition at 0.5 µM of NCCCCC(OP(=O)(O)C(CCC(F)(F)F)NC(=O)CCc1ccccc1)C(=O)O (stereo not shown) [Example 25] is ___
80%

----------
Target: carboxypeptidase B (Homo sapiens)
Construct: from tissue; host or cells: human plasma (citrated)
Assay: Inhibitory activity against carboxypeptidase B (activated pro-CPB partially purified from human plasma, Hip-Arg substrate)
Assay type: biochemical
Details: tested substance 500 nM, 25° C. for 60 minutes, absorbance at 405 nm, read-out: Carboxypeptidase B inhibitory rates by tested substance at 500 nM
Description: Inhibitory activity of the compounds of the present invention against carboxypeptidase B was measured as follows according to the method described in Thromb. Haemost. 371(1998). (a) Partial Purification of Carboxypeptidase B Precursor (pro-CPB) from Human Plasma […] The results of the carboxypeptidase B inhibitory rates are shown in Table 1, which were calculated by using the above equation and the results of the measurements in the above experiments for the compounds of the present invention.
measuredQuantity: inhibition at 0.5 µM

| compound | measuredValue |
| --- | --- |
| CC(NC(=O)CCc1ccccc1)P(=O)(O)OC(CCCCN)C(=O)O (stereo not drawn) | > 90% |
| CC(C)CC(NC(=O)CCc1ccccc1)P(=O)(O)OC(CCCCN)C(=O)O (stereo not drawn) | > 90% |
| NCCCCC(OP(=O)(O)C(CCCN)NC(=O)CCc1ccccc1)C(=O)O (stereo not drawn) | 30% |
| CCCC(NC(=O)CCc1ccccc1)P(=O)(O)OC(CCCCN)C(=O)O (stereo not drawn) | > 90% |
| NCCCCC(OP(=O)(O)C(NC(=O)CCc1ccccc1)C1CCCCC1)C(=O)O (stereo not drawn) | > 90% |

Param readout= inhibition at 0.5 µM; system= carboxypeptidase B (Homo sapiens); entry= NCCCCC(OP(=O)(O)C(NC(=O)CCc1ccccc1)C1CC1)C(=O)O (stereo not drawn) ; returns value.
> 90%
